Every entry's value here was drawn from patent US8263610B2.

Give measured melting point for each item. Keep answers brief.

Task: Assign melting point to the following record: COc1ccc(Cn2ncc3c4c(cnc32)CNCC4)cc1
Output: 96 to 102 °C

Task: Assign melting point to the following record: O=C(Nc1ccccc1)C1CCc2c(cnc3[nH]ncc23)C1 (stereo not shown)
Output: > 300 °C

Task: Assign melting point to the following record: O=C(NC1CCc2c(cnc3[nH]ncc23)C1)c1ccccc1 (stereo not shown)
Output: > 300 °C

Task: Assign melting point to the following record: Cc1cc(C)c2c(c1)-c1c(cnc3[nH]ncc13)CC2
Output: 152 to 155 °C

---

Give measured melting point for each item. Keep answers brief.

Task: Assign melting point to the following record: O=C(Nc1cccc(Cc2ccccc2)c1)N1CCc2c(cnc3[nH]ncc23)C1
Output: 175 to 178 °C

Task: Assign melting point to the following record: COc1ccc(Cn2ncc3c4c(cnc32)CN(C(=O)Nc2cccc(C(=O)O)c2)CC4)cc1
Output: > 136 °C

Task: Assign melting point to the following record: O=S(=O)(c1ccccc1)N1CCc2c(cnc3[nH]ncc23)C1
Output: 270 to 271 °C

Task: Assign melting point to the following record: Cc1cncc(Oc2cccc(NC(=O)N3CCc4c(cnc5[nH]nc(Br)c45)C3)c2)n1
Output: 221 to 223 °C

---

Structures can show the parent of a compound that is named as a salt.
Give measured melting point for each item. Keep answers brief.

Task: Assign melting point to the following record: O=C(c1ccccc1)N1CCc2c(cnc3[nH]ncc23)C1
Output: 198 to 200 °C

Task: Assign melting point to the following record: O=C(c1ccccc1)c1c[nH]c2ncnc(N3CCc4c(cnc5[nH]ncc45)C3)c12 (as salt: TFA)
Output: 300 to 302 °C

Task: Assign melting point to the following record: O=C(O)c1cccc(NC(=O)N2CCc3c(cnc4[nH]ncc34)C2)c1 [Example 93b]
Output: 237 to 241 °C

Task: Assign melting point to the following record: Fc1ccc(C2Cc3cnc4[nH]ncc4c3-c3ccccc32)cc1F (stereo not shown)
Output: 195 to 196 °C
